Parameter activation: see the listing below.
Tested Target: Rap guanine nucleotide exchange factor 3 (Homo sapiens) (UniProt O95398)
Protocol Summary: Counterscreen qHTS for agonist of cAMP-regulated guanine nucleotide exchange factor 3 (EPAC1) (AID 1645889); note: % of control where 0% means no effect; nearly all actives have a fitted effect of over 40% in size
Test Context: EPAC1 Rap1B-BODIPY-GDP exchange, fluorescence; series mostly up to 154 µM
Records with an inconclusive call do not appear. The source made the active and inactive calls. Calls come from the whole dose curve; as a rule, active = well fitted activation curve with a large enough effect; inconclusive = small, poorly fitted or top-dose-only effect, or another doubt; inactive = no such curve, though single readings can be large or run the other way.

C#CCOc1ccc(/C=C2/C(=O)N(c3cccc(C(=O)O)c3)N=C2C)cc1OC    10.5% [at 30.8 µM] (inactive)
CN(C)S(=O)(=O)N1CCN(S(=O)(=O)N(C)C)CC1    1.25% [at 30.8 µM] (inactive)

Inquiry: activation of CC(Sc1ccc(Cl)cc1)C(=O)NNC(=O)c1csc(N2CCOCC2)n1 (stereo not given) on Rap guanine nucleotide exchange factor 3 (Homo sapiens) (UniProt O95398)?
Reply text: 30.8% [at 30.8 µM] (inactive)

Inquiry: Also need "C=CCn1c(CSCc2ccc(Cl)cc2Cl)nnc1SCC(=O)Nc1ccc(C(=O)O)cc1" , thanks.
Reply text: 4.51% [at 30.8 µM] (inactive)
